Tested on: TK-10
PROCEDURE DETAILS: NCI tumour cell line growth inhibition, 48 h
The source made the active and inactive calls. Rule as the data show it: active = GI50 up to about 1.1 µM and inactive = higher.
EXPERIMENTAL ENDPOINT: GI50

COMPOUND	EXPERIMENTAL ENDPOINT	VALUE REPORTED
COC(=O)CNC(=O)CCSc1nnc(COc2ccc(Cl)cc2)n1-c1ccccc1	GI50	17.5 µM (inactive)
O=c1oc2ccccc2cc1P(=O)(O)O	GI50	> 100 µM (inactive)
CC(C)c1nc2cc(C(F)(F)F)ccc2[nH]c1=O	GI50	70.6 µM (inactive)
COC(=O)c1sc2c(c1C(=O)OC)/C(=N/c1ccc(OC)cc1)S/C2=N\c1ccc(OC)cc1	GI50	1.62 µM (inactive)
O=C(CCN1CCCCC1)N1CCc2c([nH]c3ccccc23)C1c1cccnc1 (configuration not stated)	GI50	68.9 µM (inactive)

Continue with the next compound.
# input compound: C[C@H]1CC(=O)C2=CCCC3(SCCCS3)[C@@H]2[C@H]1CO ; wanted: its GI50
> 100 µM (inactive)
